Data provenance: patent EP2469278A1

- Target Under Test: T1, hen egg-white lysozyme (hen, UniProt P00698 19-147)
- T1 construct: also called HEL
- Experimental Details: competition Biacore in solution, buffer D; free H4S measured on immobilised HEL
Measure Name: pKd
API: returns pKd as number; meaning -log10 of concentration in mol/L.

Prompt: pKd for H4S(wt) (designed binder, Nanofitin derived from Sac7d (Sulfolobus acidocaldarius), H4 with Cys29 changed into Ser29; His-tagged; also called H4S protein; parental Nanofitin H4S(wt)) MRGSHHHHHHGSVKVKFFWNGEEKEVDTSKIVWVKRAGKSVLFIYDDNGKNGYGDVTEKDAPKELLDMLARAEREKKLN ?
Response: 7.39
